meta.source: ChEMBL document CHEMBL1221318

Would you kindly list pKi for each of these molecules?
# SYSTEM_TESTED: Cannabinoid receptor 2 (Homo sapiens)
# Sequence (P34972 whole entry): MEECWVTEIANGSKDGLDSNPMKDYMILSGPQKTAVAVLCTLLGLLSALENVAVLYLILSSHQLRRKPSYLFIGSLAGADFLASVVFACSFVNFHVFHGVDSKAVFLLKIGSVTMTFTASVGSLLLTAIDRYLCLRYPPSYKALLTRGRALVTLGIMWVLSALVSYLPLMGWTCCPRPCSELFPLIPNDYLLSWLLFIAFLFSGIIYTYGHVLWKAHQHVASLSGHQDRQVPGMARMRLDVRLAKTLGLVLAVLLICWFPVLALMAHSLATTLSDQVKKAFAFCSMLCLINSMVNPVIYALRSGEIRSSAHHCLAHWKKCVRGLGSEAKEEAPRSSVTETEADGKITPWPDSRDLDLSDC
# RUN_DESCRIPTION: Displacement of [3H]CP-55940 from human recombinant CB2 receptor expressed in CHO cells
The quantity pKi is defined as the negative base-10 logarithm of the molar concentration.

Q: Need pKi of CCCCC1=NN(C(=O)NC(C)(C)c2ccc(F)cc2)CC1c1ccccc1F (configuration not stated) , thanks.
Ans: 7.05

Q: Param item: CCCCCC1=NN(C(=O)NC2C[C@H]3CCC2(C)C3(C)C)CC1c1ccccc1 (single isomer, unassigned)
Ans: 8.28

Q: Param item: CCCCCC1=NN(C(=O)NC23CC4CC(CC(C4)C2)C3)CC1c1ccccc1 (configuration not stated)
Ans: 7.83

Q: Param item: CCCCC1=NN(C(=O)NC(C)(C)c2ccccc2)C(C)(C)C1c1ccccc1 (configuration not stated)
Ans: 7.92

Q: Param item: CCCCCC1=NN(C(=O)NCC2CCCCC2)CC1c1ccccc1 (configuration not stated)
Ans: 7.28

Q: Param item: CCCCC1=NN(C(=O)N[C@H]2C[C@H]3CC[C@]2(C)C3(C)C)C(C)(C)C1c1ccccc1 (some centres not stated)
Ans: 8.47

Q: Param item: CCCCCC1=NN(C(=O)N[C@H]2C[C@H]3CC[C@]2(C)C3(C)C)CC1c1ccccc1 (stereo in doubt; 9)
Ans: 8.13

Q: Param item: CCCCC1=NN(C(=O)NC(C)(C)c2ccccc2)CC1c1ccsc1 (configuration not stated)
Ans: 7.21

Q: Param item: CCCCC1=NN(C(=O)NC(C)(C)c2ccc(F)cc2)CC1c1cccc(F)c1 (configuration not stated)
Ans: 7.13

Q: Param item: CCCCCN1N=C(C(=O)N[C@H]2C[C@H]3CC[C@]2(C)C3(C)C)CC1c1ccccc1 (some centres not stated)
Ans: 7.70

Q: Param item: CCCCCC1=NN(C(=O)Nc2cccc3ccccc23)CC1c1ccccc1 (configuration not stated)
Ans: 7.44

Q: Param item: CCCCCC1=NN(C(=O)Nc2ccccc2C(F)(F)F)CC1c1ccccc1 (configuration not stated)
Ans: 7.82

====

# SYSTEM_TESTED: Cannabinoid receptor 1 (Homo sapiens)
# Sequence (P21554 whole entry): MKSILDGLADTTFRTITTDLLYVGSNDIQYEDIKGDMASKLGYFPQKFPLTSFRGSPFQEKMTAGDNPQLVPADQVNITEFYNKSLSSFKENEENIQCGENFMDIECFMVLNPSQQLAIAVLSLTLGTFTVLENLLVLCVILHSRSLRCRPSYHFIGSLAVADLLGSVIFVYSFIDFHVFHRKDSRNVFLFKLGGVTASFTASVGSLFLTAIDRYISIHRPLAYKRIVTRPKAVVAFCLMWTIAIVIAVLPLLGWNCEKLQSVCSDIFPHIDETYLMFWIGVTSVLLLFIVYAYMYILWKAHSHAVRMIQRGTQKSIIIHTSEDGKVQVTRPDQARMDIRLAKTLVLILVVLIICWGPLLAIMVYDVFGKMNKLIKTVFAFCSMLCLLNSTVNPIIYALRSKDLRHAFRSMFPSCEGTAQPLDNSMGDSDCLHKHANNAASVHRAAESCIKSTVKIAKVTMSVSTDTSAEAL
# RUN_DESCRIPTION: Agonist activity at human recombinant CB1 receptor expressed in CHO cells assessed as effect on CP-55940 induced PLA2 activation by [3H]arachidonic acid release assay
# Type: functional, cell-based
# TEST_PARAMETERS: read-out: pA2 (converted)
ATTRIBUTE_MEASURED: Kb (nM)
Express the result in nM but write the number alone.

Q: Need Kb of CCCCCN1N=C(C(=O)N[C@H]2C[C@H]3CC[C@]2(C)C3(C)C)CC1c1ccccc1F (stereo not given in full) , thanks.
Ans: 7.94

Q: Param item: CCCCCN1N=C(C(=O)N[C@H]2C[C@H]3CC[C@]2(C)C3(C)C)CC1c1ccccc1 (stereo not given in full)
Ans: 7.94

Q: Param item: CCCCCN1N=C(C(=O)NC2C3CC4CC(C3)CC2C4)CC1c1ccccc1 (stereo not given)
Ans: 7.94

Q: Param item: CCCCCC1=NN(C(=O)N[C@H]2C[C@H]3CC[C@]2(C)C3(C)C)CC1c1ccccc1 (stereo in doubt; 9)
Ans: 7.94

Q: Param item: CCCCCN1N=C(C(=O)NC(C)(C)c2ccc(F)cc2)CC1c1ccccc1 (stereo not given)
Ans: 7.94
